Collected literature values of pKi measured for Lysine-specific histone demethylase 1A (Homo sapiens, UniProt O60341).
pKi: −log10 of the molar value.
Class True: pKi at least 6. Class False: pKi below 6.

Below are worked cases with known answers.
Query: Quick check, pKi >= 6? `Cc1ccc(-c2ncc(OCC3CCNCC3)cc2-c2ccc(C(=O)N3CCOCC3)cc2)cc1`
Reply: False

Query: Another molecule: `Cc1ccc(-c2ncc(OCC3CCNCC3)cc2-c2ccc(C(=O)N3CCNCC3)cc2)cc1`
Reply: False

Query: Also, `N[C@@H]1C[C@H]1c1cccc(-c2ccccc2)c1` please.
Reply: False

Now look at this one.
Query: Quick check: does N[C@H]1CCN(C(=O)CNC2CC2c2cc(F)cc(F)c2OCc2ccccc2)C1 (some centres undefined) have pKi greater than or equal to 6?
Reply: True
